Target: wild-type Androgen Receptor (AR-wt) (Homo sapiens (Human))
Sequence (P10275 whole entry): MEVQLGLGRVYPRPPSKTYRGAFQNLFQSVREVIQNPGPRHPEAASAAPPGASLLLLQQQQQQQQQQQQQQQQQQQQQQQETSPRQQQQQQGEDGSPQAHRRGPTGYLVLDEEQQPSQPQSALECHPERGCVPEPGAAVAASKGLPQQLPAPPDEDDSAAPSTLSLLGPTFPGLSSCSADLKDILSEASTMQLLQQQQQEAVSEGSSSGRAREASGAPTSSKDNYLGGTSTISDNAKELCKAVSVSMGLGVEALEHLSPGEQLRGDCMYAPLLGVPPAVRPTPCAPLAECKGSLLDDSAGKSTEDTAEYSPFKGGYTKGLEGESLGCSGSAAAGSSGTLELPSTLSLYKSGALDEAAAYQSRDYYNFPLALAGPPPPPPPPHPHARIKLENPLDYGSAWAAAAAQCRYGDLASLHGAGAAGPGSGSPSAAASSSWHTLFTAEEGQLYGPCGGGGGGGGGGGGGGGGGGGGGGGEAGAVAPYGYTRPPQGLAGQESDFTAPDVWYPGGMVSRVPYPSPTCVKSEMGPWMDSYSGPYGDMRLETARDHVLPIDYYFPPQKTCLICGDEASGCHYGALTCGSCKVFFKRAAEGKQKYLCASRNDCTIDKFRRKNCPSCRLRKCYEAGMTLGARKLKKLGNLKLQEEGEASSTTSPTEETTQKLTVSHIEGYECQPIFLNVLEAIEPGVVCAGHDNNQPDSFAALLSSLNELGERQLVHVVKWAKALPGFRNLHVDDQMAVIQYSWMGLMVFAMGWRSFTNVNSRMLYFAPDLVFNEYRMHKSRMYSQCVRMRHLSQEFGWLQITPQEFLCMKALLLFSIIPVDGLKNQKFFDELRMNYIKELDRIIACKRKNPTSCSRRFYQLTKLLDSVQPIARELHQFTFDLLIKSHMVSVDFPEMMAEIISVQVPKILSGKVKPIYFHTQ
Assay: LNCaP-AR-wt ANT reporter assay (antagonist mode)
Format: cell-based
Conditions: antagonist mode; pIC50 = −Log10(IC50 in Molar)
# label = true if LNCaP-AR-wt ANT pIC50 < 6 else false

>  <molecule>
CN1CCC(Oc2ncc(N3C(=S)N(c4cnc(C#N)c(C(F)(F)F)c4)C(=O)C34CCC4)cn2)CC1 [Cpd 152]

>  <category>
false

$$$$
>  <molecule>
CN1C2CCC1C(F)C(Oc1ccc(N3C(=S)N(c4cnc(C#N)c(C(F)(F)F)c4)C(=O)C34CCC4)cc1)C2 (stereo not shown) [Cpd 94]

>  <category>
false

$$$$
>  <molecule>
N#Cc1ncc(N2C(=O)C3(CCC3)N(c3ccc(OC4CC5CCC(N5)C4F)cc3)C2=S)cc1C(F)(F)F (stereo not shown) [Cpd 93]

>  <category>
false

$$$$
>  <molecule>
N#Cc1ncc(N2C(=O)C3(CCC3)N(c3ccc(OC4CCNCC4)cc3)C2=S)cc1Cl [Cpd 44]

>  <category>
false

$$$$

Record N#Cc1ncc(N2C(=O)C3(CCC3)N(c3ccc(O)nc3)C2=S)cc1C(F)(F)F [Cpd 18] : is its LNCaP-AR-wt ANT pIC50 strictly below 6?
true

----------
For each entry below, report its Emax value.
Target: F876L mutant Androgen Receptor (AR-F876L) (Homo sapiens (Human), UniProt P10275, F877L)
Sequence (P10275 whole entry F877L): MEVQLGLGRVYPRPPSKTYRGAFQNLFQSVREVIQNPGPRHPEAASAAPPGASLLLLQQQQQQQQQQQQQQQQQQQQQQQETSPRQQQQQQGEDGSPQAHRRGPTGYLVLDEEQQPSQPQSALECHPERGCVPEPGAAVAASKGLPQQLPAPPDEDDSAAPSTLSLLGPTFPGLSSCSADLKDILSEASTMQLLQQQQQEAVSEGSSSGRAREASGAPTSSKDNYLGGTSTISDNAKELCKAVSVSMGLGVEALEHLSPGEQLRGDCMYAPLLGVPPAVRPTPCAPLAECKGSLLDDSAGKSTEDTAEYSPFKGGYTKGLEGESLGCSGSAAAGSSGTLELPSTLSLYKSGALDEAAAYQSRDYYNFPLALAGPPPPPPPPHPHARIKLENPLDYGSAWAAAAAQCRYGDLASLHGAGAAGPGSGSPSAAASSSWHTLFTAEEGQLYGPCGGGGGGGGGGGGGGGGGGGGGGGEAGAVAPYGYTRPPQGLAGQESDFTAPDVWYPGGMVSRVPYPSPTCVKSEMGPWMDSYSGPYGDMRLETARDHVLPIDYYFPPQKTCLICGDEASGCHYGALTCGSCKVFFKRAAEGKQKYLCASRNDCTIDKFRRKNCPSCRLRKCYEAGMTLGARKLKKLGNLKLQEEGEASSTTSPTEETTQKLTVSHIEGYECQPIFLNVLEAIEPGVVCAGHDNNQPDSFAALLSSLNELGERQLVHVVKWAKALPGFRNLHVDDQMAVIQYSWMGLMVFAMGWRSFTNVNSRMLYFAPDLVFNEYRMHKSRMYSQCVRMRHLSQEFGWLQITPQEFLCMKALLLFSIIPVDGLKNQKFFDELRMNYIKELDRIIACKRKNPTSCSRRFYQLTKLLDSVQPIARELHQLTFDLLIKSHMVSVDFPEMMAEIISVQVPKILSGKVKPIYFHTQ
Test: LNCaP-AR-F876L AG reporter assay (agonist mode)
Type: cell-based
Conditions: agonist mode; maximum % stimulation over tested concentration range; read-out: LNCaP-AR-F876L AG MAX % Stim
One number for each entry, in %.

Record excerpt, results attached:
>  <compound>
CN1CC[C@H](CNC(=O)c2ccc(N3C(=S)N(c4cnc(C#N)c(C(F)(F)F)c4)C(=O)C34CCC4)cc2)C1

>  <system_under_test>
F876L mutant Androgen Receptor (AR-F876L) (Homo sapiens (Human), UniProt P10275, F877L)

>  <reported_value>
0.1

$$$$
>  <compound>
CN1CCC(Oc2ccc(N3C(=S)N(c4cnc(C#N)c(C(F)(F)F)c4)C(=O)C34CCC4)cn2)CC12CCC2 (racemic)

>  <system_under_test>
F876L mutant Androgen Receptor (AR-F876L) (Homo sapiens (Human), UniProt P10275, F877L)

>  <reported_value>
0.4

$$$$
>  <compound>
N#Cc1ncc(N2C(=O)C3(CCC3)N(c3ccc(C(=O)NCC4CCNCC4)c(F)c3)C2=S)cc1C(F)(F)F

>  <system_under_test>
F876L mutant Androgen Receptor (AR-F876L) (Homo sapiens (Human), UniProt P10275, F877L)

>  <reported_value>
0.1

$$$$
>  <compound>
CN1CCC(Cc2ccc(N3C(=S)N(c4cnc(C#N)c(C(F)(F)F)c4)C(=O)C34CCC4)cc2)CC1

>  <system_under_test>
F876L mutant Androgen Receptor (AR-F876L) (Homo sapiens (Human), UniProt P10275, F877L)

>  <reported_value>
0.1

$$$$
>  <compound>
N#Cc1ncc(N2C(=O)C3(CCC3)N(c3ccc(C(=O)NC[C@@H]4CCCNC4)cc3)C2=S)cc1C(F)(F)F

>  <system_under_test>
F876L mutant Androgen Receptor (AR-F876L) (Homo sapiens (Human), UniProt P10275, F877L)

>  <reported_value>
0

$$$$
>  <compound>
CN1CC(CNC(=O)c2ccc(N3C(=S)N(c4cnc(C#N)c(C(F)(F)F)c4)C(=O)C34CCC4)cc2)C1

>  <system_under_test>
F876L mutant Androgen Receptor (AR-F876L) (Homo sapiens (Human), UniProt P10275, F877L)

>  <reported_value>
0

$$$$
>  <compound>
N#Cc1ncc(N2C(=O)C3(CCC3)N(c3ccc(CN4CCNC(=O)C4)cc3)C2=S)cc1C(F)(F)F

>  <system_under_test>
F876L mutant Androgen Receptor (AR-F876L) (Homo sapiens (Human), UniProt P10275, F877L)

>  <reported_value>
0.1

$$$$
>  <compound>
CN1CCC[C@@H](CNC(=O)c2ccc(N3C(=S)N(c4cnc(C#N)c(C(F)(F)F)c4)C(=O)C34CCC4)cc2F)C1

>  <system_under_test>
F876L mutant Androgen Receptor (AR-F876L) (Homo sapiens (Human), UniProt P10275, F877L)

>  <reported_value>
0.5

$$$$

Fill in Emax for each of the 6 compounds listed.
1. COc1cc(N2C(=O)C3(CCC3)N(c3ccc(CN4CCNCC4)cc3)C2=S)cnc1C#N
2. CN1CCC(Oc2ccc(N3C(=S)N(c4cnc(C#N)c(C(F)(F)F)c4)C(=O)C34CCC4)cc2)CC1=O (racemic)
3. N#Cc1ncc(N2C(=O)C3(CCC3)N(c3ccc(C(=O)NC[C@@H]4CCCNC4)c(F)c3)C2=S)cc1C(F)(F)F
4. COc1cc(N2C(=O)C3(CCC3)N(c3ccc4nn(C5CCN(C)CC5)cc4c3)C2=S)cnc1C#N
5. N#Cc1ncc(N2C(=O)C3(CCC3)N(c3ccc(CC4CCC(N)CC4)cc3)C2=S)cc1C(F)(F)F (centres unmarked)
6. Cn1c(CCO)nc2cc(N3C(=S)N(c4cnc(C#N)c(C(F)(F)F)c4)C(=O)C34CCC4)ccc21

1: 0; 2: 1.7; 3: 0; 4: 0.1; 5: 0; 6: 0.1

For each entry beneath this line, provide reported Emax.
1. N#Cc1ncc(N2C(=O)C3(CCC3)N(c3ccc(CN4CCNCC4)cc3)C2=S)cc1Cl
2. COc1cc(N2C(=O)C3(CCC3)N(c3ccc(CC4CCN(C)CC4)cc3)C2=S)cnc1C#N
3. CN1CC[C@@H](CNC(=O)c2ccc(N3C(=S)N(c4cnc(C#N)c(C(F)(F)F)c4)C(=O)C34CCC4)cc2F)C1
4. N#Cc1ncc(N2C(=O)C3(CCC3)N(c3ccc(OC4CCNC(=O)C4)cc3)C2=S)cc1C(F)(F)F (racemic)
5. CC(=O)N1CCC(n2cc3ccc(N4C(=S)N(c5cnc(C#N)c(C(F)(F)F)c5)C(=O)C45CCC5)cc3n2)CC1

[0, 0.2, 0.1, 0.6, 0.1]

// batch mode: one Emax value per listed entry
1. N#Cc1ncc(N2C(=O)C3(CCC3)N(c3ccc(CN4CCN(CCO)CC4)cc3)C2=S)cc1C(F)(F)F
2. CN1CCN(Cc2ccc(N3C(=S)N(c4cnc(C#N)c(Cl)c4)C(=O)C34CCC4)cc2)CC1
3. CN1CCC(C)(Oc2ccc(N3C(=S)N(c4cnc(C#N)c(C(F)(F)F)c4)C(=O)C34CCC4)cn2)CC1
4. N#Cc1ncc(N2C(=O)C3(CCC3)N(c3ccc4c(ccn4C4CCNCC4)c3)C2=S)cc1C(F)(F)F
5. COc1cc(N2C(=O)C3(CCC3)N(c3ccc4c(cnn4C4CCN(CCO)CC4)c3)C2=S)cnc1C#N
6. CN1CCC(c2nc3cc(N4C(=S)N(c5cnc(C#N)c(C(F)(F)F)c5)C(=O)C45CCC5)ccc3[nH]2)CC1
7. CN1CC[C@H](CNC(=O)c2ccc(N3C(=S)N(c4cnc(C#N)c(C(F)(F)F)c4)C(=O)C34CCC4)cc2F)C1
8. C[N@+]1([O-])CC[C@@H](Oc2ccc(N3C(=S)N(c4cnc(C#N)c(C(F)(F)F)c4)C(=O)C34CCC4)cc2)CC1

1. 0.1
2. 0.2
3. 0.1
4. 0
5. 0.5
6. 0.6
7. 0.1
8. 0

Give one value of Emax per listed compound.
1. N#Cc1ncc(N2C(=O)C3(CCC3)N(c3ccc(CN4CCC(N)CC4)cc3)C2=S)cc1C(F)(F)F
2. CN1CCC(Sc2ccc(N3C(=S)N(c4cnc(C#N)c(C(F)(F)F)c4)C(=O)C34CCC4)cc2)CC1

[0.1, -0.1]
